# MIC values compiled below
# Test system: Streptococcus
# assay: Antibacterial activity against Streptococcus gamma 32206 by CLSI agar microdilution method
# Type: functional
readout kind: MIC (mg/L)

1. CCCCCCCN[C@@]1(C)C[C@H](O[C@H]2[C@H](Oc3c4cc5cc3Oc3ccc(cc3Cl)[C@@H](O[C@H]3C[C@](C)(N)[C@H](O)[C@H](C)O3)[C@@H]3NC(=O)[C@H](NC(=O)[C@@H]5NC(=O)[C@H](CC(N)=O)NC(=O)[C@H](NC(=O)[C@@H](CC(C)C)NC)[C@H](O)c5ccc(c(Cl)c5)O4)c4ccc(O)c(c4)-c4c(O)cc(O)cc4[C@H](C(=O)O)NC3=O)O[C@H](CO)[C@@H](O)[C@@H]2O)O[C@@H](C)[C@H]1O	1.56
2. CN[C@H](CC(C)C)C(=O)N[C@H]1C(=O)N[C@@H](CC(N)=O)C(=O)N[C@H]2C(=O)N[C@H]3C(=O)N[C@H](C(=O)N[C@@H](C(=O)O)c4cc(O)cc(O)c4-c4cc3ccc4O)[C@H](O[C@H]3C[C@](C)(N)[C@H](O)[C@H](C)O3)c3ccc(c(Cl)c3)Oc3cc2cc(c3O[C@@H]2O[C@H](CO)[C@@H](O)[C@H](O)[C@H]2O[C@H]2C[C@](C)(NCc3ccc(-c4ccccc4)cc3)[C@H](O)[C@H](C)O2)Oc2ccc(cc2Cl)[C@H]1O	0.78
3. CN[C@H](CC(C)C)C(=O)N[C@H]1C(=O)N[C@@H](CC(N)=O)C(=O)N[C@H]2C(=O)N[C@H]3C(=O)N[C@H](C(=O)N[C@@H](C(=O)O)c4cc(O)cc(O)c4-c4cc3ccc4O)[C@H](O[C@H]3C[C@](C)(N)[C@H](O)[C@H](C)O3)c3ccc(c(Cl)c3)Oc3cc2cc(c3O[C@@H]2O[C@H](CO)[C@@H](O)[C@H](O)[C@H]2O[C@H]2C[C@](C)(NCc3ccc(Cl)cc3)[C@H](O)[C@H](C)O2)Oc2ccc(cc2Cl)[C@H]1O	1.56
4. CN[C@H](CC(C)C)C(=O)N[C@H]1C(=O)N[C@@H](CC(N)=O)C(=O)N[C@H]2C(=O)N[C@H]3C(=O)N[C@H](C(=O)N[C@@H](C(=O)O)c4cc(O)cc(O)c4-c4cc3ccc4O)[C@H](O[C@H]3C[C@](C)(N)[C@H](O)[C@H](C)O3)c3ccc(c(Cl)c3)Oc3cc2cc(c3O[C@@H]2O[C@H](CO)[C@@H](O)[C@H](O)[C@H]2O[C@H]2C[C@](C)(NCc3ccc(C(C)C)cc3)[C@H](O)[C@H](C)O2)Oc2ccc(cc2Cl)[C@H]1O	1.56
5. CCCCCCCCN[C@@]1(C)C[C@H](O[C@H]2[C@H](Oc3c4cc5cc3Oc3ccc(cc3Cl)[C@@H](O[C@H]3C[C@](C)(N)[C@H](O)[C@H](C)O3)[C@@H]3NC(=O)[C@H](NC(=O)[C@@H]5NC(=O)[C@H](CC(N)=O)NC(=O)[C@H](NC(=O)[C@@H](CC(C)C)NC)[C@H](O)c5ccc(c(Cl)c5)O4)c4ccc(O)c(c4)-c4c(O)cc(O)cc4[C@H](C(=O)O)NC3=O)O[C@H](CO)[C@@H](O)[C@@H]2O)O[C@@H](C)[C@H]1O	1.56
